Where a name gives a salt, the structure may show the parent alone.
Reported Metric: melting point (°C)
Give the value, in units of °C, as a plain number.

I have this compound here, COCCOc1cc(S(=O)(=O)c2ccc3c(c2)nc(C(C)(C)C)n3CC2CCOCC2)ccn1 [Co. No. 150] , and I need its recorded melting point.
142.9

What about this compound? Cn1nc(S(=O)(=O)c2ccc3c(c2)nc(C(C)(C)C)n3CC2CCOCC2)ccc1=O [Co. No. 100]
224.3

What about this compound? CC(C)(C)c1nc2cc(S(=O)(=O)c3ccn(/C(F)=C/I)c(=O)c3)ccc2n1CC1CCOCC1 [Co. No. 90]
113.9

What about this compound? CC(C)(C)c1nc2cc(S(=O)(=O)c3ccc(C#N)nc3)ccc2n1CC1CCOCC1 [Co. No. 51]
228

What about this compound? CC(C)(C)c1nc2cc([S+]([O-])c3ccncc3Br)ccc2n1CC1CCOCC1 (stereo not shown) [Co. No. 88]
184.7

What about this compound? CC(C)(C)c1nc2cc(S(=O)(=O)c3ccnc(O)c3)ccc2n1CCCC(F)(F)F
277.5

What about this compound? CC(C)(C)c1nc2cc(S(=O)(=O)c3ccc(=O)[nH]n3)ccc2n1CC1CCOCC1 [Co. No. 94]
218.3

What about this compound? CC(C)(C)c1nc2cc(S(=O)(=O)c3ccc(S(C)(=O)=O)s3)ccc2n1CC1CCOCC1 (as salt: HCl) [Co. No. 58]
224

What about this compound? CC(C)(C)c1nc2cc(S(=O)(=O)c3ccc(S(C)(=O)=O)s3)ccc2n1CC1CCOCC1 [Co. No. 57]
216

What about this compound? CC(C)(C)c1nc2cc(S(=O)(=O)c3ccnc(N)c3)ccc2n1CC1CCOCC1 [Co. No. 19]
235.9

What about this compound? CC(C)(C)c1nc2cc(S(=O)(=O)c3ccc(C(=O)N4CCOCC4)o3)ccc2n1CC1CCOCC1 [Co. No. 80]
172.1

What about this compound? COCCCc1cc(S(=O)(=O)c2ccc3c(c2)nc(C(C)(C)C)n3CC2CCOCC2)ccn1 [Co. No. 154]
143.4

What about this compound? CC(C)(C)c1nc2cc(S(=O)(=O)c3ccnc(F)c3)ccc2n1CCCC(F)(F)F
138.9

###

Target: human CB1 (hCB1) receptor (Homo sapiens, UniProt P21554)
Construct: expressed in transfected cells; host or cells: CHO-K1
Sequence (P21554 whole entry): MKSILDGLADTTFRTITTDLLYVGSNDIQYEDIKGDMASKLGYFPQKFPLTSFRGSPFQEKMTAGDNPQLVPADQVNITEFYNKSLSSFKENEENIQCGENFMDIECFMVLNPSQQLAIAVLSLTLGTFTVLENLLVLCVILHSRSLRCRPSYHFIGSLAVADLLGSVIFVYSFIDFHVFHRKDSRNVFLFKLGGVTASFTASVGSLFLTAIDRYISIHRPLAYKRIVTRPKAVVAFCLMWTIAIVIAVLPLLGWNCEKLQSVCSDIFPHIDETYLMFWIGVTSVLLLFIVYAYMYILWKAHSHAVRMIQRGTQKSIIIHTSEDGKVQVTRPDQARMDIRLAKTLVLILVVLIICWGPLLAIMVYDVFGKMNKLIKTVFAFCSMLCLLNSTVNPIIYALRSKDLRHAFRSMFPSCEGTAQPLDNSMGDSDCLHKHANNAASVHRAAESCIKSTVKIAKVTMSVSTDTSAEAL
Assay: Inhibition of forskolin-activated cAMP production upon activation of hCB1 (HTRF), CHO-K1 cells
Assay type: cell-based
Conditions: CB1 pEC50, hCB1-CHO-K1 cells, forskolin-activated cAMP, pEC50=-log(EC50)
Please go through the items and note down their EC50.
Give the value, in units of nM, as a plain number.

I have this compound here, CC(=O)c1ccc(S(=O)(=O)c2ccc3c(c2)nc(C(C)(C)C)n3CC2CCOCC2)s1 , and I need its recorded EC50.
209

What about this compound? Cc1cc(S(=O)(=O)c2ccc3c(c2)nc(CC(C)(C)C)n3CC2CCOCC2)ccn1
891

What about this compound? CC(C)(C)c1nc2cc(S(=O)(=O)c3ccnc(F)c3)ccc2n1CC1CCCCO1 (stereo not shown)
794

What about this compound? CC(C)(C)c1nc2cc([S+]([O-])c3ccncc3Br)ccc2n1CC1CCOCC1 (stereo not shown)
1260

What about this compound? CC(C)(C)c1nc2cc(S(=O)(=O)c3ccc(C(F)(F)F)cn3)ccc2n1CC1CCOCC1
933

What about this compound? CC(C)(C)c1nc2cc(S(=O)(=O)c3ccc(C#N)o3)ccc2n1CC1CCOCC1
661

What about this compound? CC(C)(C)c1nc2cc(S(=O)(=O)c3ccc[n+]([O-])c3)ccc2n1CC1CCOCC1
7410

What about this compound? CC(C)(C)c1nc2cc(S(=O)(=O)c3cccc(C(F)(F)F)n3)ccc2n1CC1CCOCC1
1050

What about this compound? Cn1cc(S(=O)(=O)c2ccc3c(c2)nc(C(C)(C)C)n3CC2CCN(C=O)CC2)cn1
2510
